Tested on: homologous passive cutaneous anaphylaxis (PCA)
Experiment: Inhibitory activity against homologous passive cutaneous anaphylaxis (PCA) in rats
Assay type: in vivo, rat (male Wistar)
Details: 100 mg/kg, oral, 1 hour before the antigen
Procedure: [II]Inhibitory activity against homologous passive cutaneous anaphylaxis (PCA) in rats Antiserum was prepared according to I. Mota [Immunology, 7, 681(1964)] and the PCA reaction was conducted according to Maruyama et al. [Nippon yakurigakkaishi, 74, 179(1978)]. (1) Preparation of antiserum […] Group of 4 male Wistar rats weighing 180 to 210 g were employed. […] The blue-dyed area (mm^2) formed was measured and an inhibition rate(%) was calculated as compared with control. […]
A collection of compounds and their measured Inhibition rate (PCA reaction, blue-dyed area)
Give the number; % is assumed, so skip it.

Solved entries:
CCOC(=O)C(=Cc1cc(CSc2ccccc2)c(O)c(OCC)c1)S(C)(=O)=O [XXII]    26
CCOc1cc(C=C2C(=O)NN(c3ccccc3)C2=O)cc(CSc2ccccc2)c1O [XXXI]    30
CCOc1cc(C=C2CCNC2=O)cc(CSc2ccccc2)c1O [XXVII]    25
CCOc1cc(C=C2CCOC2=O)cc(CSc2ccccc2)c1O [XXIV]    26

Problem: Which value of Inhibition rate (PCA reaction, blue-dyed area) has been reported for CCOc1cc(C=C(C#N)C(N)=O)cc(CSc2ccccc2)c1O [I] in the records?
Result: 21
